Quick list: Ki per entry.
- Tested On: mammalian GABAARs (central benzodiazepine binding site)
- Assay: [3H]flunitrazepam displacement binding assay, rat cerebral cortex membranes
- Condition Info: rat brain membrane preparations, 0.4 nM radioligand, 60 min at 4°C
Recorded Endpoint: Ki (nM)

[[record]]
compound = "C[C@@H]1N=C(c2ccccc2Cl)c2cc([N+](=O)[O-])ccc2N(C)C1=O"
reported_result = 4.1

[[record]]
compound = "C[C@@H]1N=C(c2ccccc2)c2cc([N+](=O)[O-])ccc2NC1=O"
reported_result = 76.4

[[record]]
compound = "C[C@@H]1N=C(c2ccccc2F)c2cc([N+](=O)[O-])ccc2NC1=O [MYM-I-91A]"
reported_result = 12.1

[[record]]
compound = "CCOC(=O)c1ncn2c1[C@H](C)N=C(c1ccccc1F)c1cc(C#C[Si](C)(C)C)ccc1-2"
reported_result = 1700

